# Test system: CAKI-1 renal
# PROTOCOL: NCI tumour cell line growth inhibition, 48 h
# TGI listing for each entry below

Check out these entries, answers already filled in.
1. NC(=O)N/N=C/c1ccccc1O :: > 100 µM
2. CNCC1CCn2c(c(C3=C(c4cn(C)c5ccccc45)C(=O)NC3=O)c3ccccc32)C1 (stereo unspecified) :: 9.28 µM
3. Cn1c2c(c3c(=O)[nH]ncc31)CCCc1ccccc1-2 :: 69.9 µM
4. O[C@H]1[C@@H]2OC[C@@H](O)[C@H](OCc3ccccc3)[C@@](COCc3ccccc3)(O2)[C@@H]1OCc1ccccc1 :: 0.0898 µM
5. CC(=O)c1cccc(NC(=O)/C(=N\NC(=S)NN)C2C(=O)Nc3ccccc3S2=O)c1 (stereo unspecified) :: > 100 µM

Now look at this entry.
Req: I'm curious: which TGI was measured for COc1ccc2oc3c(ccc[n+]3C)c(=O)c2c1 tested on CAKI-1 renal?
Resp: > 100 µM

###

# Tested on: OVCAR-8 ovarian
# PROTOCOL: NCI tumour cell line growth inhibition, 48 h; in the data active = GI50 below about 0.43 µM; inactive = the rest
Assign a class; possible classes are 1 = active, -1 = inactive

# example entries with known answers
1. NS(=O)(=O)c1ccc(N=Nc2c(=O)[nH]c3ccc4[nH]cccc4c23)cc1 :: 1
2. COc1ccc2c(c1)O/C(=C\c1ccc([N+](=O)[O-])s1)C2=O :: -1
3. CCN1C(=O)N(CC)C2C1NN=c1s/c(=C\c3cnc(C)n3C)c(=O)n12 (stereo not given) :: -1

Req: GET /call?item= COc1ccc(/C=C/C(=O)/C=C(/C=C/c2ccc(OC)c(OC)c2OC)OB(F)F)c(OC)c1OC returns the recorded outcome of this test.
Resp: -1

Req: What classification did Nc1nc(N)c(-c2ccc(Cl)cc2)c(/C=C/c2ccc([N+](=O)[O-])cc2)n1 end up with in this test?
Resp: -1

###

# Test system: SK-MEL-2 melanoma
# PROTOCOL: NCI tumour cell line growth inhibition, 48 h
METRIC NAME: TGI

Recorded TGI, per entry:
1. COc1ccccc1NC1=NCC(C)S1 (configuration not stated) :: > 100 µM
2. COC(=O)C(=O)C(C(=O)C(=O)Nc1nc(=S)[nH][nH]1)c1nc2ccc([N+](=O)[O-])cc2[nH]c1=O (configuration not stated) :: > 100 µM
3. Cc1cccc2c(=O)c3c(O)cc4c(c3n(C)c12)C=CC(C)(C)O4 :: > 100 µM
4. CC(=O)NC1=CC(=O)C=C(Cl)C1=O :: > 100 µM
5. O=C1CC2OCC=C3CN4CCC56c7ccccc7N1C5C2C3CC46 (configuration not stated) (tested in a mixture with another compound) :: > 50 µg/mL

Req: What does the record list as TGI for C[Si](C)(C)C#CCOC=C1CC1 ?
Resp: > 100 µM

###

# Test system: HCT-15 colon
# PROTOCOL: NCI tumour cell line growth inhibition, 48 h; in the data active = GI50 below about 0.43 µM; inactive = the rest
Lab note: assign the record to one of active, inactive

Req: # lookup: test call for Nc1cc(N)c2nc(-c3ccccc3)c(Oc3ccc(Cl)c(Cl)c3)nc2c1
Resp: inactive

Req: Hello, I am checking results. What call was entered for NC(N)=NC(N)=NCc1ccco1 ?
Resp: inactive

Req: Recorded test outcome, item CSc1nc(-c2cccc(NC(=O)CCl)c2)c(C#N)c(=O)n1C
Resp: inactive

###

# System: NCI-H226 lung
# PROTOCOL: NCI tumour cell line growth inhibition, 48 h
Where a SMILES comes first, the peptide text is derived from it. The star is where a group is joined. Fmoc = O=C(OCC1c2ccccc2-c2ccccc21)*; Boc = CC(C)(C)OC(=O)*
List of TGI values.

1) CC(=O)N1CCN(C=S)CC1 :: > 100 µM
2) CC(C)(C)OC(=O)NCCCCC(NC(=O)C(Cc1c[nH]c2ccccc12)NC(=O)OCC1c2ccccc2-c2ccccc21)C(=O)O (stereo unspecified) (Fmoc-Trp-Lys(Boc)-OH; configuration not given here) :: > 100 µM
3) O=S1Cc2ccccc2CSS1 (stereo unspecified) :: 55.4 µM

Req: Given the compound COC(=O)CCc1c(/C=C2\N=C(c3ccc[nH]3)C=C2OC)[nH]c(C)c1C(=O)OCc1ccccc1 , what is its reported TGI?
Resp: 4.75 µM

Req: What value of TGI has been reported for the following compound? O=[N+]([O-])c1ccc2nc(=S)[nH]n2c1
Resp: > 100 µM

Req: Recorded TGI of O=C1NC(=O)C2(CCc3ccc(N(CCCl)CCCl)cc32)N1 (stereo unspecified) , please.
Resp: 21.7 µM

Req: Fill in: TGI of COc1cc(OC)c2c(c1Cl)O[C@]1(C2=O)C(OCc2ccccc2)=CC(=O)C[C@H]1C is ___
Resp: 30.2 µM

Req: Reported TGI for Nc1nc(N)c(-c2ccc(Cl)cc2)c(/C=C/c2ccc([N+](=O)[O-])cc2)n1 : what is it?
Resp: > 100 µM

Req: Need TGI of COc1cc[nH]c1/C=C1\C(=O)Nc2ccc([N+](=O)[O-])c(N3CC[C@@H](O)C3)c21 , thanks.
Resp: 1.69 µM

###

# Test system: 786-0 renal
# PROTOCOL: NCI tumour cell line growth inhibition, 48 h
Entries and their measured TGI follow.
Answer with a number only, understood to be in µM.

Below: 6 compounds and their reported TGI.
1) CCOC(=O)C(C(=O)OCC)C(NC(=O)Nc1cc(C(F)(F)F)ccc1OC)(C(F)(F)F)C(F)(F)F :: 55.8
2) C[C@]12CC[C@H]3[C@@H](CCC4=CC(=O)CC[C@@]43C)[C@@H]1CC[C@@H]2OC(=O)c1cccc2c(=O)c3ccccc3[nH]c12 :: 38.6
3) COc1cc(OC)c2c(c1Cl)O[C@]1(C2=O)C(OCc2ccccc2)=CC(=O)C[C@H]1C :: 79.7
4) COc1cc(C2S/C(=C/c3ccccc3)C(=O)N2c2ccccn2)cc(OC)c1OC (centres undefined) :: 31.4
5) CC(=O)N1c2ccc(-c3ccc(C(=O)O)cc3)cc2[C@H](Nc2ccc(Cl)cc2)C[C@@H]1C :: 40.2
6) NC(N)=N/N=C/c1ccc(Br)cc1 :: 17.7

Next:
Req: Quick one: TGI of Cc1ccc(C)c(C(=N)c2ccccc2Cc2ccccc2)c1 ?
Resp: 32.2

###

# Test system: SK-MEL-28 melanoma
# PROTOCOL: NCI tumour cell line growth inhibition, 48 h
Quick reference: TGI of the listed items.

Worked cases, TGI given:
1) NC1=CN(Cc2ccccc2)C2=N/C(=C\c3ccco3)C(=O)N12 :: > 100 µM
2) CC(C)CC1NC(=O)C(C(C)C)NC(=O)CC(C)COC(=O)C(CC(C)C)N(C)C(=O)C(C(C)C)NC(=O)C(C(C)C)OC1=O (stereo not given) :: > 50 µM
3) NC(N)=N/N=C/c1ccc(Br)cc1 :: 18.8 µM

Req: Field request: TGI | item: CCOC(=O)c1c[nH]c2cc3c(cc2c1=O)CCS3
Resp: > 100 µM

Req: Reported TGI for CCOC(=O)C(C(=O)OCC)C(NC(=O)Nc1cc(C(F)(F)F)ccc1OC)(C(F)(F)F)C(F)(F)F : what is it?
Resp: > 100 µM

###

# Test system: NCI-H522 lung
# PROTOCOL: NCI tumour cell line growth inhibition, 48 h
METRIC NAME: TGI

Worked set:
1) CC(=O)Nc1ccc2c3c(cc(O)c2c1)N(C(=O)CCCCCC(=O)Nc1ccc2c4c(cc(O)c2c1)N(C(=O)OC(C)(C)C)CC4CCl)CC3CCl (stereo not given) :: 5.78 µM
2) CC1CCC2[C@@H](C)COC3O[C@]4(C)CCC1C32OO4 (stereo not given in full) :: > 100 µM
3) Cc1cc(C)nc(NS(=O)(=O)c2ccc(NC(=O)c3ccc4nc5ccccc5c(Nc5ccc(S(=O)(=O)Nc6nc(C)cc(C)n6)cc5)c4c3)cc2)n1 :: 53.5 µM
4) CCOC(=O)c1c[nH]c2cc3c(cc2c1=O)CCS3 :: > 100 µM
5) O=C(N/N=C/c1cccc(O)c1)c1ccc(C(F)(F)F)nc1Nc1cccc(C(F)(F)F)c1 :: 6.72 µM
6) NC(N)=N/N=C/c1ccc(Br)cc1 :: 17.7 µM

Req: Report TGI for NC(N)=N/N=C/c1c(-c2ccc(Cl)cc2)nc2n1CCS2 tested on NCI-H522 lung.
Resp: 28.7 µM

Req: Form: Entry = CC1OC(n2cnc3c(N)nc(Cl)nc32)C(C)(O)C1O (stereo not given) | System = NCI-H522 lung | TGI = ____
Resp: > 25 µM

###

Listing: TGI of selected compounds
# Tested on: KM12 colon
# PROTOCOL: NCI tumour cell line growth inhibition, 48 h

Answered examples (7):
1) CCOC(=O)c1c[nH]c2cc3c(cc2c1=O)CCS3 :: > 100 µM
2) CC(=O)Nc1nc(C)c(-c2cc3c(c(S(C)(=O)=O)c2)C(=O)N([C@@H](C)C2CC2)C3)s1 :: > 100 µM
3) Fc1ccc(C(OCCN2CCC3CCC(C2)N3C/C=C/c2cccnc2)c2ccc(F)cc2)cc1 (stereo not drawn) :: 26.3 µM
4) CC1CC(c2ccc([N+](=O)[O-])cc2)=Nc2ccccc2S1=O (stereo not drawn) :: 26.7 µM
5) CCOC(=O)C(C(=O)OCC)C(NC(=O)Nc1cc(C(F)(F)F)ccc1OC)(C(F)(F)F)C(F)(F)F :: 66.1 µM
6) COc1cc(N(CCC#N)CCC#N)ccc1/C(N=Nc1cccc(C)c1)=N\NC(=O)c1ccc(C)cc1 :: > 100 µM
7) COc1cc2c3c(n(CCCN4CCN(CCO)CC4)c(=O)c2cc1OC)-c1cc2c(cc1C3=O)OCO2 :: 22.7 µM

# next compound below
Req: TGI lookup needed for O=[N+]([O-])c1ccc2nc(=S)[nH]n2c1 , thanks.
Resp: > 100 µM
